Recorded pEC50 values for a group of compounds are listed next.
System: recombinant NL4-3 virus
Test: HIV cell culture assay
Assay type: cell-based
Conditions: Human immunodeficiency virus 1, NL43, MT2
Procedure: HIV cell culture assay—MT-2 cells and 293T cells were obtained from the NIH AIDS Research and Reference Reagent Program. […] Luciferase was quantitated using the Dual Luciferase kit from Promega (Madison, Wis.), with modifications to the manufacturer's protocol. […] Fifty (50) μL of the mixture was added to each aspirated well on assay plates and luciferase activity was measured immediately on a Wallac TriLux (Perkin-Elmer). […]
pEC50: −log10 of the molar value.

- COMPOUND: "C=C(C)[C@@H]1CC[C@]2(CNCCCN3CCS(=O)(=O)CC3)CC[C@]3(C)[C@H](CC[C@@H]4[C@@]5(C)CCN(CC(=O)O)C(C)(C)[C@@H]5CC[C@]43C)[C@@H]12"
  MEASURED ON: "recombinant NL4-3 virus"
  pEC50: "< 5.52"
- COMPOUND: "C=C(C)[C@@H]1CC[C@]2(CO)CC[C@]3(C)[C@H](CC[C@@H]4[C@@]5(C)CCN(S(=O)(=O)c6ccsc6C(=O)O)C(C)(C)C5CC[C@]43C)[C@@H]12 (stereo partly drawn)"
  MEASURED ON: "recombinant NL4-3 virus"
  pEC50: "< 5.10"
- COMPOUND: "C=C(C)[C@@H]1CC[C@]2(CNCCCN3CCS(=O)(=O)CC3)CC[C@]3(C)[C@H](CC[C@@H]4[C@@]5(C)CCN(C(=O)C(=O)NC6(C(=O)O)CC6)C(C)(C)[C@@H]5CC[C@]43C)[C@@H]12"
  MEASURED ON: "recombinant NL4-3 virus"
  pEC50: "< 5.52"
- COMPOUND: "C=C(C)[C@@H]1CC[C@]2(CO)CC[C@]3(C)[C@H](CC[C@@H]4[C@@]5(C)CCCN(S(=O)(=O)c6ccc(CC(=O)O)cc6)C(C)(C)C5CC[C@]43C)[C@@H]12 (stereo partly drawn)"
  MEASURED ON: "recombinant NL4-3 virus"
  pEC50: "< 5.10"
- COMPOUND: "C=C(C)[C@@H]1CC[C@]2(CO)CC[C@]3(C)[C@H](CC[C@@H]4[C@@]5(C)CCCN(S(=O)(=O)c6ccc(/C=C/C(=O)O)cc6)C(C)(C)C5CC[C@]43C)[C@@H]12 (stereo partly drawn)"
  MEASURED ON: "recombinant NL4-3 virus"
  pEC50: "< 5.10"
- COMPOUND: "C=C(C)[C@@H]1CC[C@]2(CNCCCN3CCS(=O)(=O)CC3)CC[C@]3(C)[C@H](CC[C@@H]4[C@@]5(C)CCN(CC(=O)NC(C)(C)C(=O)O)C(C)(C)[C@@H]5CC[C@]43C)[C@@H]12"
  MEASURED ON: "recombinant NL4-3 virus"
  pEC50: "< 5.52"
- COMPOUND: "C=C(C)[C@@H]1CC[C@]2(CO)CC[C@]3(C)[C@H](CC[C@@H]4[C@@]5(C)CCCN(C(=O)CCC(=O)O)C(C)(C)C5CC[C@]43C)[C@@H]12 (stereo partly drawn)"
  MEASURED ON: "recombinant NL4-3 virus"
  pEC50: "< 5.10"
- COMPOUND: "C=C(C)[C@@H]1CC[C@]2(CO)CC[C@]3(C)[C@H](CC[C@@H]4[C@@]5(C)CCCN(S(=O)(=O)c6cccc(C(=O)O)c6)C(C)(C)C5CC[C@]43C)[C@@H]12 (stereo partly drawn)"
  MEASURED ON: "recombinant NL4-3 virus"
  pEC50: "< 5.10"
- COMPOUND: "C=C(C)[C@@H]1CC[C@]2(CNCCCN3CCS(=O)(=O)CC3)CC[C@]3(C)[C@H](CC[C@@H]4[C@@]5(C)CCN(C(=O)C(=O)NC(C)(C)C(=O)O)C(C)(C)[C@@H]5CC[C@]43C)[C@@H]12"
  MEASURED ON: "recombinant NL4-3 virus"
  pEC50: "< 5.52"

// data source = patent US20190307776A1
